Biological target: Delta-type opioid receptor (Homo sapiens, UniProt P41143)
Sequence (P41143 whole entry): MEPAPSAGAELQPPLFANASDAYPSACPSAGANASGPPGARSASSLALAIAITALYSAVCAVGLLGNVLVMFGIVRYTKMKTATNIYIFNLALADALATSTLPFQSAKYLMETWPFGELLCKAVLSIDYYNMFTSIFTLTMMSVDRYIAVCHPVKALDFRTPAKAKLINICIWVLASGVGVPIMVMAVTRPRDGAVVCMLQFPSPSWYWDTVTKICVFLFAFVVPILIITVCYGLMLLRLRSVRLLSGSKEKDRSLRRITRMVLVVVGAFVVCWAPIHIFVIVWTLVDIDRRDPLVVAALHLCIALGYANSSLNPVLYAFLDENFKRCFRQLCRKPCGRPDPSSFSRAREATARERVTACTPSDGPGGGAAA
Assay: In vitro binding affinity towards opioid receptor delta 1
pKi: −log10 of the molar value.
So basically: pKi at 8 or higher? That is rule met. Lower than 8? That is rule not met.

• CCNC(=O)c1ccc(C(=C2CC3CCC(C2)N3CCOc2ccccc2)c2ccccc2)cc1 = rule not met
• CCNC(=O)c1ccc(C(=C2CC3CCC(C2)N3CCO)c2ccccc2)cc1 = rule not met
• CCNC(=O)c1ccc(C(=C2CC3CCC(C2)N3Cc2cccs2)c2cccc(O)c2)cc1 = rule met
• CCNC(=O)c1ccc(C(=C2CC3CCC(C2)N3c2cccn2C)c2ccccc2)cc1 = rule not met
• CCNC(=O)c1ccc(C(=C2CC3CCC(C2)N3)c2ccc(O)cc2)cc1 = rule met
• O=C(NC1CC1)c1ccc(C(=C2CC3CCC(C2)N3CCc2ccccc2)c2ccccc2)cc1 = rule not met
• O=C(NC1CCCCC1)c1ccc(C(=C2CC3CCC(C2)N3CCc2ccccc2)c2ccccc2)cc1 = rule not met
